Recorded values, source paper PMC10216305.

# Assay info: in vivo
# Design: species or system mice
# Conditions used: C57, mouse, iv, 0.037 MBq, total radioactivity, Heart uptake
Observation type: tissue uptake at 4 h (%ID/g)
Please give a number only; it is taken to be in %ID/g.

Request: Param item = CCCC[C@H](NC(=O)COCCOCCNC(=O)CN1CCN(CC(=O)O)CCN(CC(=O)O)CC1)C(=O)N[C@H]1CC(=O)NCCCC[C@@H](C(N)=O)NC(=O)[C@H](Cc2c[nH]c3ccccc23)NC(=O)[C@H](CCCNC(=N)N)NC(=O)[C@@H](Cc2ccccc2)NC(=O)[C@H](Cc2c[nH]cn2)NC1=O [^67Cu-NOTA-PEG2Nle-CycMSHhex, metal not drawn] ; retrieve measured tissue uptake at 4 h.
Response: 0.34
